// data source = paper PMC8467575

# Test system: Escherichia coli ATCC 25922
# assay: microbe, parasite or virus in culture
# Type: cell-based
# test.parameters: Escherichia coli, ATCC25922; early log phase (OD600 ≈ 0.1), nutrient broth 37 °C, peptide 100–3.12 µM for 4–6 h, colony count on blood agar after 24 h; read-out: IC50 E. coli
# Procedure: E. coli, S. aureus, and S. enterica were cultured in nutrient broth at 37 °C. Listeria was cultured in brain heart infusion broth at 37 °C. Bacteria at early log phase (OD600 ≈ 0.1) were incubated with the peptides at different concentrations (100–3.12 µM) for 4–6 h. […] BA plates were incubated at 37 °C for 24 h, and the number of colonies formed was counted to determine cell viability.
parameter.measured: pIC50
Lab note: report pIC50 as minus log10 of the concentration in molar units, number only.

Value wanted: pIC50 (Escherichia coli ATCC 25922) of entry CC1(C)S[C@@H]2[C@H](NC(=O)[C@H](N)c3ccccc3)C(=O)N2[C@H]1C(=O)O [Ampicillin, reference compound] 4.82
